So I've got a bunch of compounds here, and I need their inhibition in vivo at 120 mg/kg values.
Test system: Rattus norvegicus
experimental_details: Inhibitory against carrageenan induced paw edema in rat at 120 mg/kg, sc dose after 5 hr
Type: functional
experimental_setup: route subcutaneous
Number in %, nothing else.

Would you please give the reported inhibition in vivo at 120 mg/kg of "O=C(NN1CC=CCC1)C1CCCCC1" with Rattus norvegicus?
84

Would you please give the reported inhibition in vivo at 120 mg/kg of "O=C(Cc1ccc2c(c1)OCO2)NN1CC=CCC1" with Rattus norvegicus?
0

Would you please give the reported inhibition in vivo at 120 mg/kg of "O=C(CCc1ccccc1)NN1CC=CCC1" with Rattus norvegicus?
83

Would you please give the reported inhibition in vivo at 120 mg/kg of "O=C(COc1ccccc1)NN1CC=CCC1" with Rattus norvegicus?
80

---

So I've got a bunch of compounds here, and I need their Hyperglycemic activity values.
Tested on: Rattus norvegicus
experimental_details: % change in blood glucose concentration after 2 hr post treatment at 100 mg/kg, po
Format: functional
Set-up: unit: %

Using the record for "CC(C)(C)C(=O)NN1CC=CCC1" , state its measured Hyperglycemic activity.
70

Using the record for "O=C(NN1CC=CCC1)c1ccco1" , state its measured Hyperglycemic activity.
181

Using the record for "O=C(NN1CC=CCC1)C1CCCCCC1" , state its measured Hyperglycemic activity.
100

Using the record for "O=C(NN1CC=CCC1)c1cccc(C(=O)NN2CC=CCC2)n1" , state its measured Hyperglycemic activity.
-8

Using the record for "O=C(NN1CC=CCC1)c1cccs1" , state its measured Hyperglycemic activity.
116

Using the record for "O=C(NN1CC=CCC1)C12C[C@H]3C[C@@H](C1)C[C@@H](C2)C3" , state its measured Hyperglycemic activity.
33

Using the record for "Cn1cccc1C(=O)NN1CC=CCC1" , state its measured Hyperglycemic activity.
35

---

So I've got a bunch of compounds here, and I need their Hyperglycemic activity values.
Test system: Rattus norvegicus
experimental_details: % change in blood glucose concentration after 2 hr post treatment at 100 mg/kg, po
Type: functional
Set-up: unit: %
The answer should be written as a number, with no unit following it.

Using the record for "O=C(Cc1cccnc1)NN1CC=CCC1" , state its measured Hyperglycemic activity.
0

Using the record for "O=C(CCc1ccccc1)NN1CC=CCC1" , state its measured Hyperglycemic activity.
27

Using the record for "O=C(NN1CC=CCC1)C1CCCC1" , state its measured Hyperglycemic activity.
54

Using the record for "O=C(NN1CC=CCC1)C1CC1" , state its measured Hyperglycemic activity.
66

Using the record for "CCOC(=O)NN1CC=CCC1" , state its measured Hyperglycemic activity.
27

Using the record for "CC(=O)NN1CC=CCC1" , state its measured Hyperglycemic activity.
35

Using the record for "O=C(Cc1ccc2c(c1)OCO2)NN1CC=CCC1" , state its measured Hyperglycemic activity.
7

Using the record for "O=C(COc1cccc2ccccc12)NN1CC=CCC1" , state its measured Hyperglycemic activity.
9
